- SYSTEM UNDER TEST: T1, human MSLN-FL-his protein (human, UniProt Q13421 296-580)
- T1 construct: also called human MSLN full-length protein; hMSLN-FL-his; not shown: His tag
- T1 sequence (Q13421 other isoform, or with tags, fused parts or gaps): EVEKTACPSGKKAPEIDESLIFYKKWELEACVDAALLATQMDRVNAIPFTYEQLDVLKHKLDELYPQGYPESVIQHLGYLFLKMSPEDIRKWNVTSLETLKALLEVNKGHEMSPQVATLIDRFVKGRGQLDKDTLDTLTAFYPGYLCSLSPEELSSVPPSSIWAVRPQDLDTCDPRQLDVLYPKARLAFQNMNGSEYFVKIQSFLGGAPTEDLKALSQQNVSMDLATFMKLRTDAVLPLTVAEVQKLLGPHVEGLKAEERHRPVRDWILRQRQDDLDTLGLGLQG
- PROCEDURE SUMMARY: ELISA, coated MSLN full-length;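 also: binding of chimeric antibodies to plate-bound antigen, read by TMB colour after acid stop, antibody incubated 2 h at 37 °C, negative control antibody run alongside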
# OD450 at 0.01 nM per record follows
# number only, unit OD450 dropped from output

binder S009-F2.38.12 (antibody, human IgG1, kappa, V domains shown, Human-murine chimeric antibody, human IgG1/kappa constant regions) VH: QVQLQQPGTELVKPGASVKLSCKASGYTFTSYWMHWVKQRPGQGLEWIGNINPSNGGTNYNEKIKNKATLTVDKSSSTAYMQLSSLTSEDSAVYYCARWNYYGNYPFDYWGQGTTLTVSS VL: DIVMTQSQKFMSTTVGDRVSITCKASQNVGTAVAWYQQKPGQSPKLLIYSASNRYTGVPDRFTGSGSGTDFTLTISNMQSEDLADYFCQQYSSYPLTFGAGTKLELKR , OD450 at 0.01 nM observed: 0.46

Data provenance is patent US20250250357A1.
